# credit: patent US20170355730A1

Recorded pKd by entry
target: Pin1 (Example 6, construct not stated) (human) (UniProt Q13526); assay: fluorescence anisotropy
Starred links: 1 amine or outer side, 2 acyl side, 3 side chain; linkers in the order of their positions; H or OH if unused. Non-standard residues stand in square brackets, D forms with d. Primed or numbered codes have the meaning given here. No end group written: not given here. Trimesoyl = O=C(c1cc(C(=O)[*:2])cc(C(=O)[*:3])c1)[*:1]; Phe(4-F) = N[C@@H](Cc1ccc(F)cc1)C(=O)O; 2Nal = N[C@@H](Cc1ccc2ccccc2c1)C(=O)O; Pip′ = L-homoproline (pipecolyl); Dap = NC[C@H](N)C(=O)O; Sar = CNCC(=O)O
Notebook: values listed as pKd are -log10 of the concentration (mol/L).

Here are 4 binders together with their reported answers.
binder	pKd
Trimesoyl-P[Sar][dD][Pip′][2Nal]RR[dR][Dap]F[2Nal]RRRR[Dap]K-NH2 (linker (positions not given here) via Trimesoyl; not fully specified (some residues, bridges); printed as bicyclo[Tm-(Pro-Sar-D-Asp-Pip-Nal-Arg-Arg-D-Arg)-Dap-(Phe-Nal-Arg-Arg-Arg-Arg-Dap)]-Lys) [peptide 24 (Table 18)]	5.88
Trimesoyl-[dF]F[dT][Pip′][2Nal]RA[dF][Dap]F[2Nal]RRRR[Dap]K (linker (positions not given here) via Trimesoyl; not fully specified (some residues, C-terminus, bridges); printed as bicyclo[Tm-(D-Phe-Phe-D-Thr-Pip-Nal-Arg-Ala-D-Phe)-Dap-(Phe-Nal-Arg-Arg-Arg-Arg-Dap)]-Lys) [peptide 28 (Table 18)]	5.90
Trimesoyl-P[Sar][dD][Pip′][2Nal]RR[dD][Dap]F[2Nal]RRRR[Dap]K-NH2 (linker (positions not given here) via Trimesoyl; not fully specified (some residues, bridges); printed as bicyclo[Tm-(Pro-Sar-D-Asp-Pip-Nal-Arg-Arg-D-Asp)-Dap-(Phe-Nal-Arg-Arg-Arg-Arg-Dap)]-Lys) [peptide 25 (Table 18)]	5.34
Trimesoyl-[dF][Phe(4-F)][dT][Pip′][2Nal]RS[dF][Dap]F[2Nal]RRRR[Dap]K-NH2 (linker (positions not given here) via Trimesoyl; not fully specified (some residues, bridges); printed as bicyclo[Tm-(D-Phe-Fpa-D-Thr-Pip-Nal-Arg-Ser-D-Phe)-Dap-(Phe-Nal-Arg-Arg-Arg-Arg-Dap)]-Lys) [peptide 21 (Table 18)]	6.24

Kindly review the next binder as well.
Quick one: pKd of Trimesoyl-P[Sar][dD][Pip′][2Nal]RA[dA][dA][Dap]F[2Nal]RRRR[Dap]K-NH2 (linker (positions not given here) via Trimesoyl; not fully specified (some residues, bridges); printed as bicyclo[Tm-(Pro-Sar-D-Asp-Pip-Nal-Arg-Ala-D-Ala-D-Ala)-Dap-(Phe-Nal-Arg-Arg-Arg-Arg-Dap)]-Lys) [peptide 16 (Table 18)] ?
5.60
